Values from ChEMBL document CHEMBL2440005

- Method: AUC (0 to 24 hrs) in mouse at 4 mg/kg, po
- Format: ADME, organism-based
- Set-up: time < 24 hr, dose 4 mg/kg, route oral
- Test conditions: plasma
Readout kind: AUC(0-t) at 24 h (ng·h/mL)
The response must be a number in ng·h/mL with no trailing unit.

O=C(Nc1ccc2c(c1)B(O)OC2)c1c(C(F)(F)F)ccc(Cl)c1F has a reported AUC(0-t) at 24 h of 70100

---

- System: PBMC
- Method: Antiinflammatory activity in human PBMC assessed as inhibition of LPS-induced IL-6 release incubated for 15 mins prior to LPS-challenge measured after 24 hrs by HTRF assay
- Assay type: functional, cell-based
pIC50: −log10 of the molar value.
Readout kind: pIC50

# annotated cases, reported pIC50 shown
O=S(=O)(Nc1ccc2c(c1)B(O)OC2)c1ccccc1C(F)(F)F = < 5.00
O=C(Nc1ccc2c(c1)B(O)OC2)c1cccc(C(F)(F)F)c1F = < 4.00
O=C(Nc1ccc2c(c1)B(O)OC2)c1cc(C(F)(F)F)ccc1C(F)(F)F = 5.52
O=C(Nc1ccc2c(c1)B(O)OC2)c1cccc(Cl)c1F = < 4.00
Cc1ccccc1C(=O)Nc1ccc2c(c1)B(O)OC2 = < 4.00
O=C(Nc1ccc2c(c1)B(O)OC2)c1ccc(C(F)(F)F)cc1 = < 4.00
O=C(Nc1ccc2c(c1)B(O)OC2)c1ccccc1Cl = < 4.00
OB1OCc2ccc(NCc3ccccc3C(F)(F)F)cc21 = < 5.00

O=C(Nc1ccc2c(c1)B(O)OC2)c1c(F)cccc1C(F)(F)F has a reported pIC50 of 6.43

O=C(Nc1ccc2c(c1)B(O)OC2)c1ccccc1F has a reported pIC50 of < 5.00

O=C(Nc1ccc2c(c1)B(O)OC2)c1ccc(C(F)(F)F)cc1F has a reported pIC50 of < 4.00

---

- System: PBMC
- Method: Antiinflammatory activity in human PBMC assessed as inhibition of LPS-induced TNFalpha release incubated for 15 mins prior to LPS-challenge measured after 24 hrs by HTRF assay
- Assay type: functional, cell-based
Readout kind: IC50

# annotated cases, reported IC50 shown
O=C(Nc1ccc2c(c1)B(O)OC2)Nc1ccccc1C(F)(F)F = > 10 µM
O=C(Nc1ccc2c(c1)B(O)OC2)c1c(F)cccc1C(F)(F)F = 1.2 µM

Record O=C(Nc1ccc2c(c1)B(O)OC2)c1cc(C(F)(F)F)ccc1C(F)(F)F / PBMC, IC50 recorded as 6.3 µM

Record O=C(Nc1ccc2c(c1)B(O)OC2)c1cccc(C(F)(F)F)c1 / PBMC, IC50 recorded as > 10 µM

Record O=C(Nc1ccc2c(c1)B(O)OC2)c1ccccc1Cl / PBMC, IC50 recorded as > 100 µM

Record O=C(Nc1ccc2c(c1)B(O)OC2)c1ccc(F)cc1C(F)(F)F / PBMC, IC50 recorded as 13 µM

---

- Method: Terminal half life in mouse at 4 mg/kg, po
- Type: ADME, organism-based
- Set-up: dose 4 mg/kg, route oral
- Test conditions: in vivo, read-out: beta t1/2 (converted)
Readout kind: half-life (h)
The response must be a number in h with no trailing unit.

O=C(Nc1ccc2c(c1)B(O)OC2)c1c(C(F)(F)F)ccc(Cl)c1F has a reported half-life of 13.3

---

IC50 for assorted compounds
- Tested on: PBMC
- Method: Antiinflammatory activity in human PBMC assessed as inhibition of LPS-induced TNFalpha release incubated for 15 mins prior to LPS-challenge measured after 24 hrs by HTRF assay
- Format: functional, cell-based

# annotated cases, reported IC50 shown
O=C(Nc1ccc2c(c1)B(O)OC2)c1cccc(Cl)c1F = > 100 µM
O=C(Nc1ccc2c(c1)B(O)OC2)c1ccc(C(F)(F)F)cc1C(F)(F)F = 10 µM
O=C(Nc1ccc2c(c1)B(O)OC2)c1ccccc1C(F)(F)F = 7.2 µM
O=C(Nc1ccc2c(c1)B(O)OC2)c1ccccc1OC(F)(F)F = > 100 µM
O=C(Nc1ccc2c(c1)B(O)OC2)c1ccc(C(F)(F)F)cc1F = > 100 µM

O=C(Nc1ccc2c(c1)B(O)OC2)c1ccccc1F has a reported IC50 of > 100 µM

O=C(Nc1ccc2c(c1)B(O)OC2)c1ccccc1 has a reported IC50 of > 100 µM

Cc1ccccc1C(=O)Nc1ccc2c(c1)B(O)OC2 has a reported IC50 of > 100 µM

O=C(Nc1ccc2c(c1)B(O)OC2)c1ccccc1-c1ccccc1 has a reported IC50 of > 100 µM

O=C(Nc1ccc2c(c1)B(O)OC2)c1cc(F)ccc1C(F)(F)F has a reported IC50 of 28 µM

O=C(Nc1ccc2c(c1)B(O)OC2)c1cccc(C(F)(F)F)c1F has a reported IC50 of 99 µM

---

IC50 for assorted molecules
- Test system: PBMC
- Method: Antiinflammatory activity in human PBMC assessed as inhibition of LPS-induced TNFalpha release incubated for 15 mins prior to LPS-challenge measured after 24 hrs by HTRF assay
- Assay type: functional, cell-based

# annotated cases, reported IC50 shown
O=C(Nc1ccc2c(c1)B(O)OC2)c1c(C(F)(F)F)ccc(Cl)c1F = 0.5 µM
O=S(=O)(Nc1ccc2c(c1)B(O)OC2)c1ccccc1C(F)(F)F = > 10 µM
OB1OCc2ccc(NCc3ccccc3C(F)(F)F)cc21 = > 10 µM
O=C(Nc1ccc2c(c1)B(O)OC2)c1ccc(C(F)(F)F)cc1 = > 100 µM
O=C(Nc1ccc2c(c1)B(O)OC2)c1cc(C(F)(F)F)ccc1F = > 100 µM
O=C(Nc1ccc2c(c1)B(O)OC2)c1c(F)cccc1Cl = 15 µM

COc1ccccc1C(=O)Nc1ccc2c(c1)B(O)OC2 has a reported IC50 of 36 µM

---

- Tested on: PBMC
- Method: Antiinflammatory activity in human PBMC assessed as inhibition of LPS-induced IL-6 release incubated for 15 mins prior to LPS-challenge measured after 24 hrs by HTRF assay
- Type: functional, cell-based
Readout kind: IC50

O=C(Nc1ccc2c(c1)B(O)OC2)c1cccc(C(F)(F)F)c1 = > 10 µM

Record COc1ccccc1C(=O)Nc1ccc2c(c1)B(O)OC2 / PBMC, IC50 recorded as > 100 µM

Record O=C(Nc1ccc2c(c1)B(O)OC2)Nc1ccccc1C(F)(F)F / PBMC, IC50 recorded as > 10 µM

---

- Tested on: PBMC
- Method: Antiinflammatory activity in human PBMC assessed as inhibition of LPS-induced IL-6 release incubated for 15 mins prior to LPS-challenge measured after 24 hrs by HTRF assay
- Type: functional, cell-based
pIC50: −log10 of the molar value.
Readout kind: pIC50

# annotated cases, reported pIC50 shown
O=C(Nc1ccc2c(c1)B(O)OC2)c1cc(C(F)(F)F)ccc1F = < 4.00
O=C(Nc1ccc2c(c1)B(O)OC2)c1ccccc1 = < 4.00
O=C(Nc1ccc2c(c1)B(O)OC2)c1ccccc1-c1ccccc1 = < 4.00

Consider the record given below.
O=C(Nc1ccc2c(c1)B(O)OC2)c1ccccc1OC(F)(F)F has a reported pIC50 of < 4.00
